Test system: clinical isolates of Vancomycin-resistant Enterococcus faecium (VRE)
method: MIC determination at Fidelta, clinical isolates
Format: cell-based
protocol.conditions: VRE-2010, Urine
Description: 3.4.2 MIC Determination at Fidelta (Croatia) Tested reference compounds. Amikacin sulfate (Cat. No. 01693, Chem-Impex), Gentamicin sulfate (Cat. No. G4918, Sigma Aldrich), Ceftazidime Pentahydrate (Cat. No. 1098130, USP), Meropenem (Cat. No. 1392454, USP), Tobramycin (Cat. No. 1667508, USP). Microbial strains. […]
measured.quantity: MIC90

# annotated cases, reported MIC90 shown
compound: C[C@@H](O)[C@H]1C(=O)N2C(C(=O)O)=C(S[C@@H]3CN[C@H](C(=O)N(C)C)C3)[C@H](C)[C@H]12 [Meropenem, meropenem, reference compound]
experimental.system: clinical isolates of Vancomycin-resistant Enterococcus faecium (VRE)
MIC90: > 64 µg/mL
--
compound: NCC[C@H](O)C(=O)N[C@@H]1C[C@H](N)[C@@H](O[C@H]2O[C@H](CN)[C@@H](O)[C@H](O)[C@H]2O)[C@H](O)[C@H]1O[C@H]1O[C@H](CO)[C@@H](O)[C@H](N)[C@H]1O [Amikacin, amikacin, reference compound]
experimental.system: clinical isolates of Vancomycin-resistant Enterococcus faecium (VRE)
MIC90: > 64 µg/mL

Now, please, on to the next compound.
QUERY: Give its MIC90 value. Item: CC(C)(O/N=C(\C(=O)N[C@@H]1C(=O)N2C(C(=O)[O-])=C(C[n+]3ccccc3)CS[C@H]12)c1csc(N)n1)C(=O)O [Ceftazidime, reference compound]
RESULT: > 64 µg/mL

----------
# Lookup of reported MIC50 keyed by entry
Test system: E. coli (APH(3′)IIIa)
method: MIC 50, broth micro-dilution, E. coli expressing APH(3′)IIIa
Assay type: cell-based, Escherichia coli
protocol.conditions: Escherichia coli, ATCC25922, ATCC25922 harboring plasmid encoding APH(3′)IIIa
Description: Plasmid transformation. […] Inoculum preparation. […] The Inoculums were grown to an optical density (measured by UV/Vis spectroscopy) of 0.6-0.8 at 600 nm. […] MIC determination. […] The optical density was determined by a plate reader at 600 nm, with 10 s shaking before reading. […]

# annotated cases, reported MIC50 shown
molecule: NCC[C@H](O)C(=O)N[C@@H]1C[C@H](N)[C@@H](O[C@H]2O[C@H](CN)[C@@H](O)[C@H](O)[C@H]2O)[C@H](O)[C@H]1O[C@H]1O[C@H](CO)[C@@H](O)[C@H](N)[C@H]1O [Amikacin, amikacin, reference compound]
MIC50: 16 to 32 µM

molecule: N=C(N)NC1[C@@H](O)C(OC2[C@@H](F)[C@H](O[C@H]3OC(CN)[C@@H](O)CC3N)C(N)C[C@H]2NC(=O)[C@@H](F)CCN)O[C@H](CO)[C@H]1O (some centres unmarked)
MIC50: 0.5 to 1 µM

molecule: N=C(NCC1CC1)NC1[C@@H](O)C(OC2[C@@H](F)[C@H](O[C@H]3OC(CN)[C@@H](O)CC3N)C(N)C[C@H]2NC(=O)[C@@H](O)CCN)O[C@H](CO)[C@H]1O (some centres unmarked)
MIC50: 0.25 to 0.5 µM

molecule: N=C(NCc1cnc[nH]1)NC1[C@@H](O)C(OC2[C@@H](F)[C@H](O[C@H]3OC(CN)[C@@H](O)CC3N)C(N)C[C@H]2NC(=O)[C@@H](O)CCN)O[C@H](CO)[C@H]1O (some centres unmarked)
MIC50: 1 to 2 µM

QUERY: Give its MIC50 value. Item: N=C(N)NC1C(O)[C@@H](CO)OC(OC2C(F)[C@H](O[C@H]3OC(CN)[C@@H](O)CC3N)C(N)C[C@H]2NC(=O)[C@@H](O)CCN)[C@@H]1O (some centres unmarked)
RESULT: < 0.25 µM
